Listing: EC50 of selected compounds
TARGET OF ASSAY: Melanocortin receptor 4 (Homo sapiens)
Sequence (P32245 whole entry): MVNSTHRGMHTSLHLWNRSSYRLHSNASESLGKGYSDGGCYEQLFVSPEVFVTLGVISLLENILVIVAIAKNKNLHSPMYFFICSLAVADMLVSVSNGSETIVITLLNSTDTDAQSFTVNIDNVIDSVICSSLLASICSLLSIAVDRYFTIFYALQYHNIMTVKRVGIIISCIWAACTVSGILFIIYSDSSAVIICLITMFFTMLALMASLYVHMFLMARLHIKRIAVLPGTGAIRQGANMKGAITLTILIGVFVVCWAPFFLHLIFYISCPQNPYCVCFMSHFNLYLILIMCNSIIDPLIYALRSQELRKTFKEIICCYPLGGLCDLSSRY
EXPERIMENT SUMMARY: Agonist activity at human MC4R expressed in HEK2936E cells assessed as cAMP production in presence of IBMX by time resolved fluorescence assay
*1 amine or outer side, *2 acyl side, *3 side chain or, on linkers, in order; H or OH if unused. Where a SMILES comes first, the peptide text is derived from it. Bridges are numbered along the chain shown (N, C = ends). [ ]: non-standard residue; d: D form. mXylylene = c1cc(C[*:1])cc(C[*:2])c1; oXylylene = c1ccc(C[*:2])c(C[*:1])c1; pXylylene = c1cc(C[*:2])ccc1C[*:1]; NMeR = CN[C@@H](CCCNC(=N)N)C(=O)O
Number only, in µM; omit the unit.

Sample records with EC50:
COMPOUND	TARGET OF ASSAY	EC50, µM
CC[C@H](C)[C@@H]1NC(=O)[C@@H]2CCCN2C(=O)[C@H](Cc2c[nH]c3ccccc23)NC(=O)[C@H](CCCNC(=N)N)N(C)C(=O)[C@H](Cc2ccccc2)NC(=O)[C@H](Cc2cnc[nH]2)NC(=O)[C@H]([C@@H](C)O)NC(=O)[C@@H](NC(C)=O)CSCc2ccccc2CSC[C@@H](C(N)=O)NC1=O (Ac-CTHF[NMeR]WPIC-NH2; linker 1-9 via oXylylene)	Melanocortin receptor 4 (Homo sapiens)	0.398
CC[C@H](C)[C@@H]1NC(=O)[C@@H]2CCCN2C(=O)[C@H](Cc2c[nH]c3ccccc23)NC(=O)[C@H](CCCNC(=N)N)N(C)C(=O)[C@H](Cc2ccccc2)NC(=O)[C@H](Cc2cnc[nH]2)NC(=O)[C@H]([C@@H](C)O)NC(=O)[C@@H](NC(C)=O)CSCc2cccc(c2)CSC[C@@H](C(N)=O)NC1=O (Ac-CTHF[NMeR]WPIC-NH2; linker 1-9 via mXylylene)	Melanocortin receptor 4 (Homo sapiens)	0.302

Now for a further compound.
Lookup: Form field: reported EC50 of CC[C@H](C)[C@@H]1NC(=O)[C@@H]2CCCN2C(=O)[C@H](Cc2c[nH]c3ccccc23)NC(=O)[C@H](CCCNC(=N)N)N(C)C(=O)[C@H](Cc2ccccc2)NC(=O)[C@H](Cc2cnc[nH]2)NC(=O)[C@H]([C@@H](C)O)NC(=O)[C@@H](NC(C)=O)CSCc2ccc(cc2)CSC[C@@H](C(N)=O)NC1=O (Ac-CTHF[NMeR]WPIC-NH2; linker 1-9 via pXylylene)
Found: 0.309

---

TARGET OF ASSAY: Melanocyte-stimulating hormone receptor (Homo sapiens, UniProt Q01726)
Sequence (Q01726 whole entry): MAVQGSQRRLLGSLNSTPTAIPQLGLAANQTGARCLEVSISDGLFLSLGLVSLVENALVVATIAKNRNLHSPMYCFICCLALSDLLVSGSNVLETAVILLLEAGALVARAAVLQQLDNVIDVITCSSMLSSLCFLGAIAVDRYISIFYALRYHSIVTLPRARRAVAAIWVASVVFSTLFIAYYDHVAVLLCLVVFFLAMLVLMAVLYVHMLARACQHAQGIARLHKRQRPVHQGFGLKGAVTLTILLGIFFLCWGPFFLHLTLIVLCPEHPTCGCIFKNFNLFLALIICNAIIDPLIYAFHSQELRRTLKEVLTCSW
EXPERIMENT SUMMARY: Agonist activity at human MC1R expressed in HEK2936E cells assessed as cAMP production in presence of IBMX by time resolved fluorescence assay
Type: functional, cell-based
CONDITION SET: read-out: pEC50 (converted)
*1 amine or outer side, *2 acyl side, *3 side chain or, on linkers, in order; H or OH if unused. Where a SMILES comes first, the peptide text is derived from it. Bridges are numbered along the chain shown (N, C = ends). [ ]: non-standard residue; d: D form. mXylylene = c1cc(C[*:1])cc(C[*:2])c1; Nle = CCCC[C@H](N)C(=O)O
MEASURE: EC50 (nM)
Number only, in nM; omit the unit.

Lookup: Value wanted: EC50 (Melanocyte-stimulating hormone receptor (Homo sapiens, UniProt Q01726)) of entry CCCC[C@@H]1NC(=O)[C@@H]2CSCc3cccc(c3)CSC[C@H](NC(=O)[C@H](CCCNC(=N)N)NC(=O)[C@H](CC(=O)O)NC(=O)[C@H](Cc3c[nH]c4ccccc34)NC(=O)[C@H](CCCNC(=N)N)NC(=O)[C@H](Cc3ccccc3)NC(=O)[C@H](Cc3cnc[nH]3)NC(=O)CNC1=O)C(=O)N[C@@H](Cc1cnc[nH]1)C(=O)N[C@@H](Cc1ccccc1)C(=O)N[C@@H](CCCNC(=N)N)C(=O)N[C@@H](Cc1c[nH]c3ccccc13)C(=O)N[C@@H](CCCNC(=N)N)C(=O)N2 (cyclo(CHFRWRC[Nle]GHFRWDR); linker 1-7 via mXylylene)
Found: 0.0871
